experiment: Bidirectional transport (Papp, efflux ratio) of antimalarials through Caco-2 cell monolayers; format: in vitro ADME, human; settings: human, Caco-2; Conc (μM) + inhibitor (μM): 10; first-named drug measured; read-out: Papp Ap-Bas
Overview of recorded Papp at 120 min, 10 µM for various compounds
test.readout: Papp at 120 min, 10 µM (×10⁻⁶ cm/s)

compound | test.readout | experimental.result
CCN(CC)Cc1cc(Nc2ccnc3cc(Cl)ccc23)ccc1O | Papp at 120 min, 10 µM | 16
OC(c1cc(C(F)(F)F)nc2c(C(F)(F)F)cccc12)C1CCCCN1 (stereo not drawn) | Papp at 120 min, 10 µM | 9.9
C[C@H]1[C@H](N2CCS(=O)(=O)CC2)O[C@@H]2O[C@@]3(C)CC[C@H]4[C@H](C)CC[C@@H]1[C@@]24OO3 | Papp at 120 min, 10 µM | 59.6
